Consider the following Ki data for Serine/threonine-protein kinase mTOR (Homo sapiens, UniProt P42345), collected from several reports.
Hi all, reminder that labels come from Ki, split as class 1: < 10 nM; class 2: ≥ 10 nM and < 80 nM; class 3: ≥ 80 nM

See these solved cases before continuing.
[[record]]
compound = "COc1ccc(-c2cc3c(C)nc(N)nc3n(C3CCOC3)c2=O)cn1 (centres undefined)"
cat = "class 3"

[[record]]
compound = "CCNC(=O)Nc1ccc(-c2nc3c(c(N4CCOCC4)n2)CS(=O)(=O)C3)cc1"
cat = "class 2"

[[record]]
compound = "Cn1ncc2c(Oc3ccc(S(C)(=O)=O)cc3)cc(-c3cccc4[nH]ncc34)nc21"
cat = "class 3"

[[record]]
compound = "C[C@@H]1COCCN1c1nc(-c2cnc(N)cc2C(F)F)nc(N2CCOCC2)n1"
cat = "class 1"

[[record]]
compound = "CCNC(=O)Nc1ccc(-c2nc3c(c(N4C[C@@H]5C[C@H]4CO5)n2)CS(=O)(=O)C3)cc1"
cat = "class 2"


Kindly review the next compound as well.
Sort `Nc1cc(C(F)F)c(-c2nc(N3CCOCC3)cc(N3CCOCC3)n2)cn1` into one of the categories.
class 2

###

Across several studies, compounds have been characterized by their Ki on Serine/threonine-protein kinase mTOR (Homo sapiens, UniProt P42345); a selection follows.
Answer with the value and then the unit.

Guide cases for Ki, answers given:
[[record]]
smiles_str = "Cc1c(CN2CCN(C(=O)C(C)(C)O)CC2)sc2c(N3CCOCC3)nc(-c3cnc(N)nc3)nc12"
property_measured = "Ki"
result = "14 nM"

[[record]]
smiles_str = "Nc1cc(C(F)F)c(-c2nc(N3C[C@@H]4C[C@H]3CO4)nc(N3C[C@@H]4C[C@H]3CO4)n2)cn1"
property_measured = "Ki"
result = "18.5 nM"

[[record]]
smiles_str = "COc1cc(N)ncc1-c1nc(N2CCOCC2)nc(N2CCOCC2)n1"
property_measured = "Ki"
result = "483 nM"

[[record]]
smiles_str = "Cc1nc(N)c2cccc(C(=O)Nc3cn[nH]c3)c2n1"
property_measured = "Ki"
result = "21 nM"

[[record]]
smiles_str = "N#Cc1c(N2CCOCC2)sc(-c2nnc[nH]2)c1-c1ccc(Cl)cc1Cl"
property_measured = "Ki"
result = "2470 nM"


Now take the following compound into account.
Which value of Ki has been reported for `Cc1nc(N)nc2c1cc(-c1cccc(CO)c1)c(=O)n2C1CCCC1` in the records?
82 nM

###

Across several studies, compounds have been characterized by their Ki on Serine/threonine-protein kinase mTOR (Homo sapiens, UniProt P42345); a selection follows.
Just so you know, I need the unit written after the number.

Consider the worked cases shown below.
[[record]]
smiles_str = "CC(C)n1cc(C(=O)c2cncc(N[C@@H]3CCN(C=O)[C@@H]3c3ccc(F)cc3)n2)c2c(N)ncnc21"
property_measured = "Ki"
result = "2800 nM"

[[record]]
smiles_str = "Cc1nc(N)nc2c1nc(-c1cc[nH]n1)c(=O)n2C1CCOCC1"
property_measured = "Ki"
result = "0.8 nM"

[[record]]
smiles_str = "CNc1nc(C)c2cc(-c3ccc(OC)nc3)c(=O)n(C3CCCC3)c2n1"
property_measured = "Ki"
result = "700 nM"

[[record]]
smiles_str = "COc1ccc(NC(=O)c2cc(C)cc3c(N)nc(C)nc23)cn1"
property_measured = "Ki"
result = "265 nM"

[[record]]
smiles_str = "CC(C)n1cc(C(=O)c2cncc(N[C@@H]3COC[C@@H]3c3ccc(F)cc3)n2)c2c(N)ncnc21"
property_measured = "Ki"
result = "500 nM"

[[record]]
smiles_str = "Cc1ccc(-c2nc3c(C)nc(N)nc3n([C@H]3CC[C@H](OCCO)CC3)c2=O)cn1"
property_measured = "Ki"
result = "5.11 nM"

[[record]]
smiles_str = "CC[C@@H]1COCCN1c1nc(-c2cnc(N)cc2C(F)F)nc(N2CCOC[C@H]2CC)n1"
property_measured = "Ki"
result = "13.6 nM"

[[record]]
smiles_str = "Cc1nc(N)nc2c1cc(-c1cn[nH]c1)c(=O)n2C1CCC1"
property_measured = "Ki"
result = "51.2 nM"

[[record]]
smiles_str = "CC(C)n1cc(C(=O)c2cncc(N[C@@H]3CNC[C@@H]3c3ccc(F)cc3)n2)c2c(N)ncnc21"
property_measured = "Ki"
result = "1100 nM"


# next compound below
Please give the measured Ki for this compound: `COc1ncc(-c2nc3c(C)nc(N)nc3n(C(C)C)c2=O)cn1`
18 nM
